Tested target: Glucocorticoid receptor (Homo sapiens) (UniProt P04150)
Sequence (whole entry): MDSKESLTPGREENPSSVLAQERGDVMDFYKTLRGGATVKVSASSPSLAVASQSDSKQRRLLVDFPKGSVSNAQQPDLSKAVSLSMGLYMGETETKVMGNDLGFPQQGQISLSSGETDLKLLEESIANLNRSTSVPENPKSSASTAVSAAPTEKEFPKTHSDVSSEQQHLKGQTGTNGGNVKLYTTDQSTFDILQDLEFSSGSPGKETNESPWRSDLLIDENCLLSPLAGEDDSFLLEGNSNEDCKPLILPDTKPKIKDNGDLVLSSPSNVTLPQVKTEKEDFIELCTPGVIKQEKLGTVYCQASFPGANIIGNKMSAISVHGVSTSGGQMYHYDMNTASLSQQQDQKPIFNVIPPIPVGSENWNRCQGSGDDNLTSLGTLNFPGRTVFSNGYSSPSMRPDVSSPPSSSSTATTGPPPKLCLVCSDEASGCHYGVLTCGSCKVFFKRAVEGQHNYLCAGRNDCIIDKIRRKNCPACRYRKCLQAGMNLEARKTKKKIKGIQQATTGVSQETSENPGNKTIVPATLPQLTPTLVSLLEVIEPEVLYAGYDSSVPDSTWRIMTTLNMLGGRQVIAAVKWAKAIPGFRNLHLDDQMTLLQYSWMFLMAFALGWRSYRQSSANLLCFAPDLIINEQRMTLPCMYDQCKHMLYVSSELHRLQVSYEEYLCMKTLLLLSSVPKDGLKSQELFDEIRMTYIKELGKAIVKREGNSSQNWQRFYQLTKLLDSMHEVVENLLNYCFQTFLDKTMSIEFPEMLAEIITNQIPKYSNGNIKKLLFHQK
Procedure summary: Transactivation activity at GR-mediated modulation of MMTV promoter activity in human HeLa cells transfected with luciferase gene linked to MMTV promoter after 16 hrs by luciferase reporter gene assay
Format: cell-based
Output MET for IP not less than 80 nM; output NOT MET otherwise.

Observe how each entry below is paired with its result.
{"Smiles": "CNC(=O)c1ccccc1CC[C@]1(O)CCC2=Cc3c(cnn3-c3ccc(F)cc3)C[C@@]21C", "Assigned class": "MET"}
{"Smiles": "CC(C)(CO)NC(=O)c1ccccc1CC[C@]1(O)CCC2=Cc3c(cnn3-c3ccc(F)cc3)C[C@@]21C", "Assigned class": "NOT MET"}

Assess whether reported IP for C[C@]12Cc3cnn(-c4ccc(F)cc4)c3C=C1CC[C@@]2(O)CCc1ccc(F)cc1C(N)=O sits at 80 nM or higher.
MET

Decide: IP of C=C(C)CNC(=O)c1c(F)cccc1CC[C@]1(O)CCC2=Cc3c(cnn3-c3ccc(F)cc3)C[C@@]21C >= 80 nM?
MET

Is IP at least 80 nM? Consider CC(C)(C)NC(=O)c1ccccc1CC[C@]1(O)CCC2=Cc3c(cnn3-c3ccc(F)cc3)C[C@@]21C
MET

Hi team, for C[C@]12Cc3cnn(-c4ccc(F)cc4)c3C=C1CC[C@@]2(O)CCc1cc(F)ccc1C(N)=O , is the recorded IP at or above 80 nM?
NOT MET

Kindly determine if IP recorded for CCCNC(=O)c1ccccc1CC[C@]1(O)CCC2=Cc3c(cnn3-c3ccc(F)cc3)C[C@@]21C is above or exactly 80 nM.
MET

Has C[C@]12Cc3cnn(-c4ccc(F)cc4)c3C=C1CC[C@@]2(O)CCc1c(F)cccc1C(N)=O a recorded IP greater than or equal to 80 nM?
NOT MET

Please tell me: is the molecule C[C@]12Cc3cnn(-c4ccc(F)cc4)c3C=C1CC[C@@]2(O)CCc1cccc(F)c1C(N)=O at or over 80 nM in terms of IP?
NOT MET
